B1: LINE1-full (parent)
chain: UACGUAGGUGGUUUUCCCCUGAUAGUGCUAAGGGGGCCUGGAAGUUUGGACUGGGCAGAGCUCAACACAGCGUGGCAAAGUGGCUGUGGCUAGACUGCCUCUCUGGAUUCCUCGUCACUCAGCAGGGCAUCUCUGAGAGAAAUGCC

variants of: B1; assay: self-cleavage, relative activity (ratio to wild type); higher = more cleavage; in vitro, sequencing; the parent is a self-cleaving ribozyme
Entries are grouped by self-cleavage into these classes: class 0 = under 0.4, class 1 = from 0.4 up to 1, class 2 = 1 and over

Query block: Field: class (self-cleavage) — entry: U45G G88U
Result block: class 0

Query block: Field: class (self-cleavage) — entry: U20A U115C
Result block: class 2

Query block: Field: class (self-cleavage) — entry: U14G A69G
Result block: class 1

Query block: Field: class (self-cleavage) — entry: U73C A94U
Result block: class 1

Query block: Field: class (self-cleavage) — entry: A22U A77G
Result block: class 2

Query block: Field: class (self-cleavage) — entry: A140G C145U
Result block: class 1

Query block: Field: class (self-cleavage) — entry: A24G A138U
Result block: class 2

Query block: Field: class (self-cleavage) — entry: A69U C118U
Result block: class 0

Query block: Field: class (self-cleavage) — entry: U20C U87A
Result block: class 0

Query block: Field: class (self-cleavage) — entry: G40C U45C
Result block: class 1
